target: basic fibroblast growth factor (bFGF) (UniProt P09038 P09038:135-288); assay: filter; PBS, 0.01% HSA, 1 mM DTT, 37 C; +/-0.5; conditions: tags: Bachem California, 18 kDa, 154 aa; 125I-labeled for receptor assays
Sequence (P09038 135-288, one chain of several): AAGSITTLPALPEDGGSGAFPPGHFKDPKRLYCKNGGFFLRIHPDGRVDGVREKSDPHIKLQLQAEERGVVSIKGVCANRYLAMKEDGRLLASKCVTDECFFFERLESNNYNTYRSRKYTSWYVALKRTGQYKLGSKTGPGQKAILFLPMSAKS
parameter: Kd (nM)
Just the number in nM, nothing appended.

2'-NH2 72B (ssRNA, 2'-NH2 pyrimidines) RNA: GGGAGGACGAUGCGGCUCAGCAUCCAGGAAGGGGACUUGGUAGGGCACCAUCGAGAUCUUGGCGUCAGACGACUCGCCCGA = 3.4

API: the following record is the query input.
Per the record, 2'-NH2 22B (ssRNA, 2'-NH2 pyrimidines) RNA: GGGAGGACGAUGCGGCGUGGUUCCGUGGGUGGUGAGAUGAGACUUAAUCAGUUCGUAGACCGGUCAGACGACUCGCCCGA has Kd of 2.8

Source listed as patent US6177557.
